target: HLA DRB1*15:01 (Homo sapiens, UniProt P01903+P01911); experiment: biochemical; format: binding; settings: binder threshold 1,000 nM, read-out: In vitro (IC50 nM) DRB1*15:01
measuredQuantity: IC50
Record the result as number plus unit.

[Q] Requested field: IC50. Item: CC[C@H](C)[C@H](NC(=O)[C@@H]1CCCN1C(=O)[C@H](CCSC)NC(=O)[C@@H](N)CC(C)C)C(=O)N[C@@H](CC(C)C)C(=O)N[C@H](C(=O)N[C@@H](CC(C)C)C(=O)N[C@H](C(=O)N[C@@H](CCCNC(=N)N)C(=O)N[C@@H](C)C(=O)N[C@@H](CC(C)C)C(=O)N[C@H](C(=O)N[C@@H](C)C(=O)N[C@@H](CCC(=O)O)C(=O)N[C@@H](CO)C(=O)O)[C@@H](C)O)[C@@H](C)O)[C@@H](C)O
[A] 37 nM

Others:
[Q] Entry under review: CC(C)[C@H](NC(=O)[C@H](CO)NC(=O)[C@H](CC(N)=O)NC(=O)[C@H](C)NC(=O)[C@H](Cc1ccc(O)cc1)NC(=O)[C@H](C)NC(=O)[C@@H](NC(=O)[C@@H](NC(=O)[C@H](C)NC(=O)[C@H](CC(=O)O)NC(=O)CNC(=O)[C@H](CO)NC(=O)[C@@H](N)CO)[C@@H](C)O)[C@@H](C)O)C(=O)N[C@@H](Cc1ccccc1)C(=O)N[C@@H](CC(N)=O)C(=O)O [Peptide 137] . Reported IC50?
[A] 567 nM

[Q] # input compound: CC(C)C[C@H](NC(=O)[C@H](C)NC(=O)[C@H](CCCNC(=N)N)NC(=O)[C@@H](NC(=O)[C@H](CC(C)C)NC(=O)[C@@H](N)[C@@H](C)O)[C@@H](C)O)C(=O)N[C@H](C(=O)N[C@@H](C)C(=O)N[C@@H](CCC(=O)O)C(=O)N[C@@H](CO)C(=O)N[C@@H](Cc1c[nH]cn1)C(=O)N[C@H](C(=O)N[C@@H](CC(=O)O)C(=O)N[C@H](C(=O)N[C@@H](CC(=O)O)C(=O)O)[C@@H](C)O)C(C)C)[C@@H](C)O ; wanted: its IC50
[A] 1290 nM

----------
biological target: HLA DRB1*01:01 (Homo sapiens, UniProt P01903+P01911, A100R/D57E/F55L/F60I/F76Y/I96L/L162R/M171V/P40L/Q125E/R42F/V115G/Y59C); experiment: biochemical; assay type: binding; details: binder threshold 1,000 nM, read-out: In vitro (IC50 nM) DRB1*01:01
measuredQuantity: IC50
Put your answer as a value accompanied by its unit after it.

[Q] Please report the recorded IC50 for CC(C)C[C@H](NC(=O)[C@H](CCCNC(=N)N)NC(=O)[C@H](Cc1ccc(O)cc1)NC(=O)[C@H](Cc1ccccc1)NC(=O)[C@H](CCCNC(=N)N)NC(=O)[C@H](Cc1c[nH]cn1)NC(=O)[C@H](CO)NC(=O)[C@H](CC(C)C)NC(=O)[C@H](CO)NC(=O)[C@H](CS)NC(=O)[C@H](CS)NC(=O)[C@@H](NC(=O)[C@@H](NC(=O)[C@H](Cc1c[nH]cn1)NC(=O)[C@@H](N)CCCCN)[C@@H](C)O)[C@@H](C)O)C(=O)O .
[A] 279 nM

----------
biological target: HLA DRB1*09:01 (Homo sapiens, UniProt P01903+P01911, A100R/A103E/D57H/D86V/F55Y/F60I/F76Y/I96F/K127E/L162R/M171V/P40D/Q125H/Q99R/R33Q/R42F/S133A/S66N/T210M/V115G/W38K/Y107V/Y59G/Y89S); experiment: biochemical; assay type: binding; details: binder threshold 1,000 nM, read-out: In vitro (IC50 nM) DRB1*09:01
measuredQuantity: IC50 (nM)
Just the number please, in nM, no unit attached.

[Q] Field request: IC50 | item: CC(C)C[C@H](NC(=O)[C@H](Cc1ccc(O)cc1)NC(=O)[C@H](C)NC(=O)[C@H](Cc1ccc(O)cc1)NC(=O)[C@H](Cc1ccccc1)NC(=O)[C@H](CCC(=O)O)NC(=O)[C@H](CC(N)=O)NC(=O)[C@@H](NC(=O)[C@H](Cc1ccccc1)NC(=O)[C@H](CC(=O)O)NC(=O)[C@@H](NC(=O)[C@H](CC(=O)O)NC(=O)[C@@H](NC(=O)[C@@H](N)CC(=O)O)C(C)C)[C@@H](C)O)C(C)C)C(=O)N[C@@H](CCCNC(=N)N)C(=O)O [Peptide 148]
[A] 6950

----------
biological target: HLA DRB1*09:01 (Homo sapiens, UniProt P01903+P01911, A100R/A103E/D57H/D86V/F55Y/F60I/F76Y/I96F/K127E/L162R/M171V/P40D/Q125H/Q99R/R33Q/R42F/S133A/S66N/T210M/V115G/W38K/Y107V/Y59G/Y89S); assay: biochemical; assay type: binding; conditions: binder threshold 1,000 nM, read-out: In vitro (IC50 nM) DRB1*09:01
Please note: IC50 exactly at 200 nM is no (0). Only values below 200 nM get yes (1).

Below, 2 compounds whose answers are already recorded.
[Q] Report whether reported IC50 is lower than 200 nM (strictly) for CSCC[C@H](NC(=O)[C@@H](NC(=O)[C@@H]1CCCN1C(=O)[C@H](CC(C)C)NC(=O)[C@H](CC(N)=O)NC(=O)[C@H](Cc1ccc(O)cc1)NC(=O)[C@H](CCCNC(=N)N)NC(=O)[C@H](Cc1ccc(O)cc1)NC(=O)[C@H](Cc1ccc(O)cc1)NC(=O)[C@H](CC(=O)O)NC(=O)[C@H](Cc1ccc(O)cc1)NC(=O)[C@H](CC(=O)O)NC(=O)[C@@H](N)CO)[C@@H](C)O)C(=O)N[C@@H](CS)C(=O)N[C@@H](CC(=O)O)C(=O)O [Peptide 91]
[A] no (0)

[Q] Record CC(C)C[C@H](NC(=O)[C@H](CCCNC(=N)N)NC(=O)[C@H](Cc1ccc(O)cc1)NC(=O)[C@H](Cc1ccccc1)NC(=O)[C@@H](N)CCCNC(=N)N)C(=O)N[C@@H](C)C(=O)N[C@@H](CC(N)=O)C(=O)N[C@@H](CCC(=O)O)C(=O)N[C@@H](CS)C(=O)N[C@@H](C)C(=O)N[C@@H](CCC(N)=O)C(=O)N[C@H](C(=O)N[C@@H](CC(C)C)C(=O)N[C@@H](CO)C(=O)N[C@@H](CCC(=O)O)C(=O)O)C(C)C [NSP12_131] : is its IC50 strictly below 200 nM?
[A] yes (1)

Continuing:
[Q] I wonder whether CC(C)C[C@H](NC(=O)[C@H](CCCNC(=N)N)NC(=O)[C@H](Cc1ccc(O)cc1)NC(=O)[C@H](Cc1ccccc1)NC(=O)[C@H](CCCNC(=N)N)NC(=O)[C@H](Cc1c[nH]cn1)NC(=O)[C@H](CO)NC(=O)[C@H](CC(C)C)NC(=O)[C@H](CO)NC(=O)[C@H](CS)NC(=O)[C@H](CS)NC(=O)[C@@H](NC(=O)[C@@H](NC(=O)[C@H](Cc1c[nH]cn1)NC(=O)[C@@H](N)CCCCN)[C@@H](C)O)[C@@H](C)O)C(=O)O [NSP12_129] has IC50 below 200 nM. Can you tell?
[A] no (0)

[Q] Say whether its IC50 is strictly beneath 200 nM. Entry: CSCC[C@H](NC(=O)[C@H](CO)NC(=O)[C@H](Cc1ccccc1)NC(=O)[C@H](Cc1c[nH]cn1)NC(=O)[C@H](CCCCN)NC(=O)[C@H](CCCNC(=N)N)NC(=O)[C@H](CC(C)C)NC(=O)[C@H](Cc1ccc(O)cc1)NC(=O)[C@H](C)NC(=O)[C@H](Cc1ccc(O)cc1)NC(=O)[C@H](Cc1ccccc1)NC(=O)[C@H](CCC(=O)O)NC(=O)[C@H](CC(N)=O)NC(=O)[C@@H](NC(=O)[C@@H](N)Cc1ccccc1)C(C)C)C(=O)O [NSP12_149]
[A] no (0)
